Give pIC50 for every item shown.
biological target: JAK3 (Homo sapiens, UniProt P52333); construct: 5 μl of catalytic domain recombinant Kinase enzyme+Tyr peptide substrate (Invitrogen, Calif.); assay: Z'-LYTE kinase assay, JAK3 tyrosine phosphorylation activity
Sequence (P52333 822-1111 limits assumed): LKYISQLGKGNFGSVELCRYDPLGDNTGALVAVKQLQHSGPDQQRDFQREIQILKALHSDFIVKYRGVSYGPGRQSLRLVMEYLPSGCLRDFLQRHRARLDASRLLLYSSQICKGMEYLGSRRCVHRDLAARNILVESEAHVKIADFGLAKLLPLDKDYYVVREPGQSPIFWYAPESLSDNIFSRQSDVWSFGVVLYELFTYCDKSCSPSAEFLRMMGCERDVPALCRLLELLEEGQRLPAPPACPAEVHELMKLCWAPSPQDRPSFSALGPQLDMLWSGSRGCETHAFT
pIC50: −log10 of the molar value.

Request: Look up and report measured pIC50 for this entry: CC(=O)Nc1ccc(F)c(Nc2ncc(C(N)=O)c(NCc3ccccc3)n2)c1
Response: 7.00 to 8.00

Request: Look up and report measured pIC50 for this entry: CN(C)[C@@H]1CCN(C(=O)Nc2cccc(Nc3cc(NCc4cccc(F)c4)c(C(N)=O)cn3)c2)C1
Response: > 9.00

Request: Look up and report measured pIC50 for this entry: CC(=O)Nc1cccc(Nc2ncc(C(N)=O)c(NCc3ccccn3)n2)c1
Response: 7.00 to 8.00

Request: Look up and report measured pIC50 for this entry: C[C@@H](Nc1nc(Nc2ccc(Cl)c(NC(=O)N(C)C)c2)ncc1C(N)=O)c1ccccc1
Response: 8.00 to 9.00

Request: Look up and report measured pIC50 for this entry: NC(=O)Nc1cccc(Nc2ncc(C(N)=O)c(NCc3ccccc3)n2)c1
Response: 8.00 to 9.00

Request: Look up and report measured pIC50 for this entry: COCC(=O)Nc1cccc(Nc2ncc(C(N)=O)c(NCc3ccccc3)n2)c1
Response: 8.00 to 9.00

Request: Look up and report measured pIC50 for this entry: CC(=O)Nc1cccc(Nc2ncc(C(N)=O)c(NCC3CCCN(C(N)=O)C3)n2)c1 (centres unmarked)
Response: > 9.00

Request: Look up and report measured pIC50 for this entry: C[C@@H](Nc1cc(Nc2cccc(NC(=O)N3CCCC3)c2)ncc1C(N)=O)c1ccccc1
Response: 8.00 to 9.00

Request: Look up and report measured pIC50 for this entry: CC[C@H](C)Nc1nc(Nc2ccc(Cl)c(NC(=O)NC)c2)ncc1C(N)=O
Response: 7.00 to 8.00

Request: Look up and report measured pIC50 for this entry: COCC(=O)Nc1cccc(Nc2ncc(C(N)=O)c(NCc3ccc(OC)cc3)n2)c1
Response: 7.00 to 8.00

Request: Look up and report measured pIC50 for this entry: CNC(=O)Nc1cc(Nc2ncc(C(N)=O)c(NC3CCCC3)n2)ccc1Cl
Response: 7.00 to 8.00

Request: Look up and report measured pIC50 for this entry: CC(=O)Nc1cccc(Nc2ncc(C(N)=O)c(NCC3CCNCC3)n2)c1
Response: 8.00 to 9.00

Request: Look up and report measured pIC50 for this entry: NC(=O)Nc1cc(Nc2ncc(C(N)=O)c(NCc3ccccc3)n2)ccc1Cl
Response: 8.00 to 9.00

Request: Look up and report measured pIC50 for this entry: C[C@@H](Nc1nc(Nc2cccc(NC(=O)N3CCOCC3)c2)ncc1C(N)=O)c1ccccc1
Response: > 9.00

Request: Look up and report measured pIC50 for this entry: CC(=O)Nc1cccc(Nc2cc(NCCc3ccccc3)c(C(N)=O)cn2)c1
Response: 6.00 to 7.00

Request: Look up and report measured pIC50 for this entry: CC(C)OC(=O)Nc1cccc(Nc2ncc(C(N)=O)c(NCc3ccccc3)n2)c1
Response: 7.00 to 8.00

Request: Look up and report measured pIC50 for this entry: COC(=O)Nc1cc(Nc2ncc(C(N)=O)c(NC3CCCC3)n2)ccc1Cl
Response: 7.00 to 8.00
